EXPERIMENTAL TARGET: T1, human parathyroid hormone receptor (PTHR) (human, UniProt Q03431 27-593)
T1 construct: Assayed in membranes of HKRK-B7 cells or of transiently transfected COS-7 cells, or on intact HKRK-B7/HKRK-B64/COS-7 cells; RG = co-transfected with negative-dominant Galpha-s; R0 = receptor alone plus GTPgammaS; also called hPTHR; human PTH receptor
T1 sequence: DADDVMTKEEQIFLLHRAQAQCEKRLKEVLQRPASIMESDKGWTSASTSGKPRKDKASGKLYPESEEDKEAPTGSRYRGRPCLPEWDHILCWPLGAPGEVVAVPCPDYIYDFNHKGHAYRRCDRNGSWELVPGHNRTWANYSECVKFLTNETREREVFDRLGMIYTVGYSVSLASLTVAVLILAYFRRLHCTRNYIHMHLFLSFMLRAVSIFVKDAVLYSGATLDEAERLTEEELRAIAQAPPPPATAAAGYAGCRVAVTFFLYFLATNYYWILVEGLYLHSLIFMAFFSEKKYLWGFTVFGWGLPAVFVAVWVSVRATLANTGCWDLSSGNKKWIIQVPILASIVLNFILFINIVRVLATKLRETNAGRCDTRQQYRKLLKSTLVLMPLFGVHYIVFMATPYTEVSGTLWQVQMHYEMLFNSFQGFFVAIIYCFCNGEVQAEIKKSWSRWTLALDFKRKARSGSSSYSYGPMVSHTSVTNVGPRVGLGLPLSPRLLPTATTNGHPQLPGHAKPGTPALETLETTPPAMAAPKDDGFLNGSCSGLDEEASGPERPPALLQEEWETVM
PROCEDURE TEXT: competition radioligand binding, hPTHR RG conformation
Ends that are not written are not given here.
VALUE TYPE: IC50

>>> result("AVSEHQLLHDKGKSIQDARRRAFLHKLI-NH2 [A18,22,K26-PTHrP(1-28)NH]")
"0.1 nM"
>>> result("AVSEHQLLHDKGKSIQDERRRAFLHKLI-NH2 [E18,A22,K26-PTHrP(1-28)NH]")
"0.24 nM"
>>> result("AVSEHQLLHDKGKSIQDERRRAFLLKLIAE-NH2 (also called EALK-PTHrP(1-30)) [E18,A22,L25,K26-PTHrP(1-30)NH]")
"0.08 nM"
